Tested on: 786-0
run_description: NCI tumour cell line growth inhibition, 48 h
Active and inactive are the calls of the source. Rule as the data show it: active = GI50 up to about 1.1 µM and inactive = higher.
Hi there, use one of these labels in your reply, thanks! T = active, F = inactive

Answered cases to consult:
molecule	system_tested	class_label
Cc1nc2c(=O)[nH]c(=O)n(C)c2[nH]c1=O.c1ccncc1	786-0	F
O=C(O)c1c2c(cc3c1CC1(Cc4cc5c(cc4C1=O)CCC5)C3)CCC2 (stereo not given)	786-0	F
CCN(CC)c1ccc2c(c1)OC(=O)C(c1nnc(-c3ccc([N+](=O)[O-])cc3)o1)C2 (stereo not given)	786-0	F
Cc1c2cnccc2c(C)c2c1[nH]c1ccc(O)cc12	786-0	T
Cc1ccc2c(O)cc(-c3cccs3)nc2n1	786-0	F
CCOP(=O)(OCC)C(Nc1ccc(Cl)cc1)c1ccc(F)cc1 (stereo not given)	786-0	F
CC[C@@H](/C=C\CCC1(C[C@@H](N)CCC=C(C)C)OCCO1)O[Si](C(C)C)(C(C)C)C(C)C	786-0	F
Cc1c2c(c(C)c3c4c(oc13)CCCC4)C=NCC2	786-0	F

Assay outcome for COC(=O)C1CCC(=O)N1C(c1ccc(OC)cc1)c1cc(OC)c(OC)c(OC)c1 (stereo not given) : what was it?
T

And the next one, Nc1nc(NCC2(CO)CC(CCc3ccccc3)C2)cc(=O)[nH]1 (stereo not given) ?
F

----------
Tested on: MOLT-4
run_description: NCI tumour cell line growth inhibition, 48 h
Active and inactive are the calls of the source. Cut-off read from the data, not from the text of the source: active = GI50 up to about 1.1 µM and inactive = higher.
test_readout: GI50

compound	GI50
CNS(=O)(=O)NN(C)S(=O)(=O)c1ccc(C)cc1	> 100 µM (inactive)
COC(=O)C1(Cc2ccccc2)Cc2cc3c(cc2C1=O)CCC3 (configuration not stated)	17.1 µM (inactive)
O=C1CSC2(CC(/C=C/c3ccccc3)=NN2c2cccc(S(=O)(=O)O)c2)N1c1nc2ccccc2s1 (configuration not stated)	24.9 µM (inactive)
CC(C)OP(=O)(OC(C)C)C(C(F)(F)F)C(F)(F)F	> 100 µM (inactive)

Each of the following entries comes with a recorded value; kindly state GI50 for each.
1. CCC1(c2c(F)c(F)c(N)c(F)c2F)CCC(=O)NC1=O (configuration not stated)
2. N#CC12C(=O)N3C(=NC(c4ccco4)NC3c3ccco3)C1(C#N)C(c1ccco1)NC1=C2CCCC1 (configuration not stated)

1. > 100 µM (inactive)
2. > 100 µM (inactive)

Each of the following entries comes with a recorded value; kindly state GI50 for each.
1. O=C(O)C12CC3CC(C1)C2C=C3P(=O)(O)O (configuration not stated)
2. Cc1csc(-c2cn(C)c3c2C(=O)C(=N)C=C3O)n1
3. O=C1OC(c2ccc(O)c(-c3ccccc3)c2)(c2ccc(O)c(-c3ccccc3)c2)c2c(Cl)c(Cl)c(Cl)c(Cl)c21
4. Cc1cc2oc(=O)[nH]c(=S)c2c(C)c1C

> 100 µM (inactive)
3.18 µM (inactive)
> 100 µM (inactive)
> 100 µM (inactive)

Each of the following entries comes with a recorded value; kindly state GI50 for each.
1. CC(=O)COC(=O)CC(C)=O
2. CCP(=S)(CC)CCl
3. C[Si](C)(C)C#CCOC=C1CC1
4. Cc1nccn1S(=O)(=O)c1ccc(Br)cc1Br
5. Cc1ccccc1C(=O)c1ccccc1O
6. CN1CN(C(=O)N2CN(C)C(=O)N(C)C2)CN(C)C1=O

["> 100 µM (inactive)", "> 10 µM (inactive)", "> 100 µM (inactive)", "29 µM (inactive)", "> 100 µM (inactive)", "> 100 µM (inactive)"]

Each of the following entries comes with a recorded value; kindly state GI50 for each.
1. c1ccc(C(c2cccc3c2ccc2ccccc23)C(c2ccccc2)c2cccc3c2ccc2ccccc23)cc1 (configuration not stated)
2. C=C1CN=C(Nc2ccc(Cl)cc2)S1
3. O=C1/C(=C/c2ccc(F)cc2)CNC/C1=C\c1ccc(F)cc1
4. CC(=O)O[C@@H](C1C[C@@H](C)[C@H]2[C@@](O)(O1)[C@H](O)[C@@]1(C)C3=CC[C@H]4C(C)(C)[C@@H](OC5OCC(O)C(O)C5O)CC[C@@]45C[C@@]35CC[C@]21C)C(C)(C)O (some centres not stated)
5. CCOC(=O)NC(Nc1ccc(C(=O)O)cc1)(C(F)(F)F)C(F)(F)F

> 100 µM (inactive)
> 10 µM (inactive)
2.11 µM (inactive)
12.3 µM (inactive)
> 100 µM (inactive)

Recorded GI50 for N#CC(NNC(=O)c1ccccc1O)c1ccc(O)cc1 (configuration not stated) , please?
4.17 µM (inactive)

----------
Test system: MDA-MB-231
run_description: NCI tumour cell line growth inhibition, 48 h
Active and inactive are the calls of the source. No stated cut-off is given here; in the data, active = GI50 up to about 1.1 µM and inactive = higher.
Give GI50 for every item shown.

compound	GI50
CC(=O)O[C@@H](C1C[C@@H](C)[C@H]2[C@@](O)(O1)[C@H](O)[C@@]1(C)C3=CC[C@H]4C(C)(C)[C@@H](OC5OCC(O)C(O)C5O)CC[C@@]45C[C@@]35CC[C@]21C)C(C)(C)O (some centres undefined)	18.3 µM (inactive)
CCOC(=O)C1=NN(c2ccccc2)C2=CC(C)=NN(C)C(=S)N21	> 100 µM (inactive)
Cc1c2cnccc2c(C)c2c1[nH]c1ccc(O)cc12	1.57 µM (inactive)

Next compound, please.
Value wanted: GI50 (MDA-MB-231) of entry NS(=O)(=O)c1ccc(/N=N/c2c(O)c(C(=O)O)cc3ccccc23)cc1
> 100 µM (inactive)

----------
Tested on: MDA-N
run_description: NCI tumour cell line growth inhibition, 48 h
Active and inactive are the calls of the source. Rule as the data show it: active = GI50 up to about 1.1 µM and inactive = higher.
Give GI50 for every item shown.

Each of the following entries comes with a recorded value; kindly state GI50 for each.
1. COc1cc(O)c2c(=O)c(O)c(-c3ccc(O)c(OC)c3)oc2c1 [RHAMNAZIN]
2. CSc1ccc(Nc2cc(=O)[nH]c(=O)[nH]2)cc1
3. ClC1=C(Cl)C(Cl)(Cl)SS1
4. Cc1ccc(/C=C2\CN(C)CC3=C2OC(N)=C(C#N)C3c2ccc(C)cc2)cc1 (centres undefined)
5. OC[C@H]1CCCC1O (some centres undefined)

1. 4.8 µM (inactive)
2. > 100 µM (inactive)
3. 9.68 µM (inactive)
4. 17.2 µM (inactive)
5. > 100 µM (inactive)

----------
System: NCI-H23
run_description: NCI tumour cell line growth inhibition, 48 h
Calls of active or inactive are those of the source. No stated cut-off is given here; in the data, active = GI50 up to about 1.1 µM and inactive = higher.
Give GI50 for every item shown.

Below, 8 compounds whose answers are already recorded.
compound	result
O[C@]12c3ccccc3C1CCCC2N1CCOCC1 (some centres not stated)	> 100 µM (inactive)
CN(C)CC1CC/C(=C\c2ccc(O)cc2)C1=O (configuration not stated)	6.67 µM (inactive)
Nc1nc(SC/C=C/c2ccccc2)c2[nH]cnc2n1	> 100 µM (inactive)
CCOP1(=O)CC(C)=C(Cl)C(OC)C1 (configuration not stated)	> 100 µM (inactive)
COc1ccc2c(c1)/C(=C\c1c(-c3ccccc3)nc3n1CCS3)C(=O)N2	11.5 µM (inactive)
C=CC[C@@]1([C@H](C=C)COCc2ccc(OC)cc2)CC[C@]2(C)OC(C)(C)[C@@H](c3ccccc3)N2C1=S	40.4 µM (inactive)
COc1cc2c3c(c1OC)Oc1ccc(cc1)CC1c4c(cc(OC)c(OC)c4Oc4ccc(cc4)CC3N(C)CC2)CCN1C (configuration not stated)	57.9 µM (inactive)
C/C(=N\N=C(/S)N(C)C)c1cccc[n+]1[O-]	12.6 µM (inactive)

Each of the following entries comes with a recorded value; kindly state GI50 for each.
1. N/C(=N/c1ccc(O)cc1)S(=O)O
2. O=C(CC(=O)Nc1cccc(C(=O)O)c1)Nc1cccc(C(=O)O)c1
3. Cc1ccc(C(=O)N/N=C(\N=N\c2cccc(C)c2)c2ccc(N(CCC#N)CCC#N)cc2C)cc1
4. Cc1cc(O)nc(NN2C(Cl)C(=O)C2c2c(O)ccc3ccccc23)n1 (configuration not stated)
5. N#CCC(=O)N/N=C1/C(=O)N(c2cc(Cl)ccc2Cl)C(=O)C(=O)C1c1nc2ccccc2s1 (configuration not stated)
6. CC(C)(C)C(=O)C(C(=O)c1ccccc1)C(=O)C(C)(C)C

1: > 100 µM (inactive); 2: > 100 µM (inactive); 3: > 100 µM (inactive); 4: 16.4 µM (inactive); 5: > 100 µM (inactive); 6: > 100 µM (inactive)

----------
Tested on: MCF7
run_description: NCI tumour cell line growth inhibition, 48 h
Activity calls are given as the source filed them. Cut-off read from the data, not from the text of the source: active = GI50 up to about 1.1 µM and inactive = higher.
Hi there, use one of these labels in your reply, thanks! true (1) (active), false (0) (inactive)

compound	class_label
CCCCON1C[C@H](OC(C)=O)C(OC(C)=O)[C@H](OC(C)=O)C1 (stereo not given in full)	false (0)
CNC(=S)c1nnsc1N	true (1)
CCCCCC(O)(CCCCC)CCCCCCCCC1=C(O)C(=O)c2ccccc2C1=O	false (0)
Nc1n[nH]c2nc3ccc(C(F)(F)F)cc3nc12	false (0)

Assay outcome for O=C1Oc2ccccc2N/C1=C/C(=O)c1ccc(Cl)cc1 : what was it?
false (0)

And the next one, OC(CN(CCCl)CCCl)C(O)C(O)C(O)CN(CCCl)CCCl (stereo not given) ?
false (0)

And the next one, Cn1c(=O)c2c(nc3n2CCCC(=O)N3CC(O)CCl)n(C)c1=O (stereo not given) ?
false (0)

And the next one, Cc1cc(S(=O)(=O)[N-]C(=C(C#N)C#N)[n+]2ccc(N(C)C)cc2)c(SCC(=O)O)cc1Cl ?
false (0)

And the next one, Cc1cc(C)nc(NS(=O)(=O)c2ccc(NC(=O)c3cccc4c(NNc5ccc(S(=O)(=O)N=C(N)N)cc5)c5ccccc5nc34)cc2)n1 ?
false (0)

And the next one, CCOC(=O)c1ccc(NC(=O)O/N=C(/Cl)C(C)C)cc1 ?
false (0)

Numbers sourced from ChEMBL document CHEMBL1201862.
